Target: human vasopressin V1a receptor subtype (Homo sapiens, UniProt P37288)
Sequence (P37288 whole entry): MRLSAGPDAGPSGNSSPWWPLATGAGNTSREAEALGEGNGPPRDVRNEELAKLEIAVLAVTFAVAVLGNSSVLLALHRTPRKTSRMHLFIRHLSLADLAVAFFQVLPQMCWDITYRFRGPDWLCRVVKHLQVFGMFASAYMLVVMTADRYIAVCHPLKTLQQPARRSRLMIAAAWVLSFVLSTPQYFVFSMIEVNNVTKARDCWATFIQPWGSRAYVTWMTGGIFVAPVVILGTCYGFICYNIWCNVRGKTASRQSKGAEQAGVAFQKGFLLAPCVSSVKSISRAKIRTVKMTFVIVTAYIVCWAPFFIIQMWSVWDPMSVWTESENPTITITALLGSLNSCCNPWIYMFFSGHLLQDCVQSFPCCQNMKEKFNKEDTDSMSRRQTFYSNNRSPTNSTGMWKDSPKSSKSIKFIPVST
readout.name: IC50 (µM)
State just the number; it will be interpreted in µM.

**Query** Enter reported IC50 observed with human vasopressin V1a receptor subtype (Homo sapiens, UniProt P37288) for COC[C@@H](OC)[C@@H](OC)[C@H](OC)[C@H](CN(C)C(=O)c1ccc2n1Cc1ccccc1N(C(=O)c1ccc(C3=CCCCC3)c(C)c1)C2)OC [Example 8]
**Result** 0.315
